System: intestinal alkaline phosphatase [Mus musculus]
Test: mouse intestinal phosphatase enzyme activation – biochemical, luminescence, single concentration, confirmation (AID 434970)
Conditions: purified mouse IAP, CDP-Star luminescence, 30 min, at 10 µM; stronger effect = lower value
Hit rate of the full screen: of about 11,000 compounds, about 310 (2.8%) were called active. The list comes from a sample in which actives are over-represented; it also holds close analogues and randomly drawn compounds. Starred links: 1 amine or outer side, 2 acyl side, 3 side chain; linkers in the order of their positions; H or OH if unused. Positions of bridges follow the written chain, without caps; N, C: chain ends. Non-standard residues stand in square brackets, D forms with d. Residues, ends and D or L forms follow the SMILES beside them. ξ: configuration not given here. hSer(Ph(2-I,4-NO2,6-CO)) = O=C([C@H](CCOc1c(I)cc([N+](=O)[O-])cc1C(=O)[*:3])N[*:1])[*:2]; ξD = NC(CC(=O)O)C(=O)O
# maps each entry to its activity change, negative = activation
// units = %; emit number, no label

Before answering, review these 8 worked examples.
compound: CCn1cc(CN2CCC(C(=O)Nc3cccc(-c4cccc(Cl)c4)c3)CC2)c(C)n1
unitsSymbol: %
measured: -396
//
compound: O=C1Nc2ccccc2C(O)(C(=O)NC2CC2)N1c1ccc(Cl)c(Cl)c1 (stereo not drawn)
unitsSymbol: %
measured: 8.85
//
compound: Cc1ccc(NC(=O)C2CC(=O)n3c(nc4ccccc43)N2)cc1Cl (stereo not drawn)
unitsSymbol: %
measured: -125
//
compound: O=S1(=O)CC(O)C(Nc2ccccc2)C1 (stereo not drawn)
unitsSymbol: %
measured: 5.85
//
compound: CCN(CC)S(=O)(=O)c1ccc2c(c1)nc(SCc1nc3ccsc3c(=O)[nH]1)n2CC
unitsSymbol: %
measured: 0.85
//
compound: Cc1ccccc1NC1=C(Cl)C(=O)OC1OC(C)C (stereo not drawn)
unitsSymbol: %
measured: 2.45
//
compound: CCOC(=O)C1=C(C)N(C[C@@H]2CC[C@@H](Cc3ccc(-c4ccccc4)cc3)O2)C(=O)NC1c1ccc(-c2ccccc2)cc1 (stereo partly drawn)
unitsSymbol: %
measured: -12.1
//
compound: O=C(Nc1cccc(F)c1)Nc1cccc(Cl)c1
unitsSymbol: %
measured: -111

Form field activity change, negative = activation, entry `Cc1cc(NC(=O)Nc2cccc(Cl)c2)n(-c2ccccc2)n1` : -97.1

The compound listed as `Cc1ccc(NC(=O)C(=O)NNC(=O)c2ccccc2C)cc1Cl` has a reported activity change, negative = activation of 11.1

Quick note, activity change, negative = activation for `O=C(O)CS(=O)(=O)c1ccc(Oc2ccc(S(=O)(=O)CC(=O)O)cc2)cc1` landed at -10.4

Briefly, activity change, negative = activation measured for Cc1ccc(NC(=O)C2CC(=O)n3c(nc4ccccc43)N2)cc1C (stereo not drawn) : -120

Notebook: `O=C(Nc1cccc(F)c1)N1CCN(C/C=C/c2ccccc2)CC1` , activity change, negative = activation read as 1.15

The recorded activity change, negative = activation for C[C@@H]1NC(=O)c2cc([N+](=O)[O-])cc(I)c2OCC[C@@H](C(=O)NC(CC(=O)O)C(N)=O)NC(=O)[C@H](CC(N)=O)NC1=O (stereo partly drawn) (AN[hSer(Ph(2-I,4-NO2,6-CO))][ξD]-NH2; lactam N-3) is -14.8

So for Cc1cccc(NC(=O)C2CC(=O)n3cnnc3S2)c1 (stereo not drawn) , the logged activity change, negative = activation turned out to be 15.8

// sample `O=S(=O)(N[C@H](CO)c1ccccc1)c1ccc(Br)cc1F` , its activity change, negative = activation was -2.75

* * *

Listed here are molecules together with their documented activation factor.
Tested on: intestinal alkaline phosphatase [Mus musculus]
Assay: mouse intestinal phosphatase enzyme activation – biochemical, luminescence, single concentration, confirmation (AID 434970)
Conditions: purified mouse IAP, CDP-Star luminescence, 30 min, at 10 µM; measured here: IAP activation factor, stronger effect = higher value
About 310 (2.8%) of roughly 11,000 compounds were called active. For the sample, actives were picked, then their nearest neighbours and some compounds at random.
Keep it simple and answer with nothing but the number.

Before answering, review these 2 worked examples.
smi: O=C(c1ccc[nH]1)N1O[C@@H]2C=C[C@H]1C2
recordedMetric: activation factor
measured: 0.951
//
smi: Cc1ccccc1NC(=O)/C(=C\c1cccs1)NC(=O)c1ccccc1
recordedMetric: activation factor
measured: 1.02

Kindly note the recorded activation factor for `Cc1cc(=O)c2cc(Br)ccc2[nH]1` , which is 0.944

Data point: `OCCN1CCN(C(=S)c2ccc(Cl)c(Cl)c2)CC1` ; activation factor = 0.845

The molecule identified as `COC(=O)[C@H]1C2CCC(C(=O)OC)(CC2)[C@H]1C(=O)OC` registered its activation factor at 0.915

// `COC(=O)[C@H](CCSC)NC(=O)Cn1cnc(C(=O)Nc2ccc(C)c(C)c2)n1` : activation factor value = 0.956

* * *

Test system: intestinal alkaline phosphatase [Mus musculus]
Assay: mouse intestinal phosphatase enzyme activation – biochemical, luminescence, single concentration, confirmation (AID 434970)
Details: purified mouse IAP, CDP-Star luminescence, 30 min, at 10 µM; stronger effect = lower value
Hit rate of the full screen: of about 11,000 compounds, about 310 (2.8%) were called active. This excerpt belongs to a sample that is enriched for actives.
Mark Criterion met only when activity change, negative = activation stays strictly below -20%. Values equal to the cut-off are Criterion not met.

compound: COc1ccc(NC(=S)NCC2CCCO2)c(OC)c1 (centres undefined)
category: Criterion not met
--
compound: CC(NC(=O)Nc1ccc(Cl)cc1)C(c1cccs1)N1CCOCC1 (centres undefined)
category: Criterion met
--
compound: C[C@@H]1CN([C@H](C)CO)C(=O)c2cc(NC(=O)Nc3ccc(F)cc3)ccc2O[C@H]1CN(C)C(=O)Nc1ccc(C(F)(F)F)cc1
category: Criterion met
--
compound: Cc1ccc(NC(=O)CN(C)C(=O)CCCN2C(=O)c3ccccc3C2=O)cc1
category: Criterion not met

**Query** Strictly below -20% in activity change, negative = activation? `S=C(Nc1ccc(Cl)c(Cl)c1)NC1CCCCC1`
**Result** Criterion met

**Query** Given the entry `CC(C)CCNC(=O)COc1ccc2c(c1)C(=O)CC(C)(C)O2` , would its reported activity change, negative = activation be below -20%?
**Result** Criterion not met

**Query** Dear colleague, could you confirm whether activity change, negative = activation of `CN=C1N(C)C[C@@H]2[C@@H]3C(=O)N(Cc4ccccc4)C(=O)[C@@H]3[C@](Cc3ccccc3)(C(=O)OC)N12` falls below -20%? Thanks.
**Result** Criterion not met

**Query** Just wondering, is activity change, negative = activation of CC(Cc1cccs1)NC(=O)Nc1ccc(Cl)c(Cl)c1 (centres undefined) below -20%?
**Result** Criterion not met

**Query** I wonder whether `C[C@H](CO)N1C[C@H](C)[C@H](CN(C)Cc2ccccc2)Oc2ccc(NC(=O)Nc3ccc(F)cc3)cc2C1=O` has activity change, negative = activation below -20%. Can you tell?
**Result** Criterion met

**Query** Answer whether the compound CCOc1ccc(C2N(c3cc(C)on3)C(=O)C3CCCN32)cc1OC (centres undefined) has activity change, negative = activation strictly less than -20%
**Result** Criterion not met

* * *

System: intestinal alkaline phosphatase [Mus musculus]
Experiment: mouse intestinal phosphatase enzyme activation – biochemical, luminescence, single concentration, confirmation (AID 434970)
Conditions: purified mouse IAP, CDP-Star luminescence, 30 min, at 10 µM; stronger effect = lower value
The campaign covered roughly 11,000 compounds. About 310 (2.8%) were called active. This excerpt belongs to a sample that is enriched for actives.
Reported activity change, negative = activation values for the following compounds.
State the answer as a number, implicitly in %.

The following compounds have reported results that may help.
compound: O=C1CN(c2ccccc2F)C(=O)CN1c1ccccc1F
activity change, negative = activation (%): -1.1
//
compound: O=C(Cc1ccccc1)NC(NC(=S)Nc1cc(Cl)ccc1Cl)C(Cl)(Cl)Cl (stereo not given)
activity change, negative = activation (%): 8.8
//
compound: Cc1ccc2oc(-c3ccc(NC(=O)c4ccc5c(c4)OCO5)cc3)nc2c1
activity change, negative = activation (%): 5.6

Lab note: `CCN(CC)c1ccc(NC(=O)c2cccc(OC)c2)c(C)c1` gave activity change, negative = activation of 3.05

Memo: CCN(CC)C(=O)[C@H]1CC(CC(=O)NCCC2=CCCCC2)C(=O)N2CCc3c([nH]c4ccc(OC)cc34)[C@]12C (stereo not given in full) , reported activity change, negative = activation: -7.45

The compound identified as `Cc1ccc(C)c(CN2CCC(CNC(=O)Nc3ccc(Cl)cc3)CC2)c1` registered its activity change, negative = activation at -123

Looking up `C#CCOCCOCCOCCNc1nc(N2CCN(C(=O)CCCCCCCCCCNC(=O)[C@H](CO)n3cc(CCCSC)nn3)CC2)nc(N2CCN(C(=O)CCCCCCCCCCNC(=O)[C@H](CCCCN)n3cc(C[C@@H](C)CC)nn3)CC2)n1` , I see its activity change, negative = activation listed as -183
